FYI, the data here is from the supplement of paper PMC10567573.

B1: DYRK1B (parent)
chain: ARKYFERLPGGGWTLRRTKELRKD

Variants of: B1
ASSAY TEXT: protein stability index of a GFP-peptide fusion (GPS, HEK-293T) (PSI 1-6); higher = more stable;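 further: lentivirally expressed fusions sorted by FACS into six bins by GFP to DsRed ratio, PSI derived from sequencing read proportions per bin multiplied by bin number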
PARTICULARS: c terminus: a fixed tail appended
Measured protein stability index by item
Lab note: write the figure by itself, no unit.

The examples below pair each entry with its known result.
* ARKYFERLPGGGWTLRRDKELRKD | 4.05
* ARKYFERYPGGGWTLRRTKELRKD | 4.07
* ARKYFERLPNGGWTLRRTKELRKD | 4.09

Consider the record given below.
I have this variant here, ARKYFERLPGGGNTLRRTKELRKD , and I need its recorded protein stability index.
3.95
